- protocol_notes: Pharmacokinetic experiment (blood concentration by HPLC)
- Assay type: in vivo, mice
- conditions: male, mouse, blood, po, 20 mg/kg, Oral administration, time 240 min, read-out: average conc.
reported_metric: concentration at 240 min (ng/mL)

compound | reported_metric | result_value
CO/N=C(\C(=O)NC1C(=O)N2C(C(=O)O)=C(Sc3cc(N)nc(N)n3)CSC12)c1csc(N)n1 (stereo not shown) | concentration at 240 min | 230

====

- protocol_notes: Pharmacokinetic experiment (blood concentration by HPLC)
- Assay type: in vivo, mice
- conditions: male, mouse, blood, intravenous; mice; Injection, 20mg/kg
// reported half-life for each item listed

compound | quantity_unit | half-life
C=CC1=C(C(=O)O)N2C(=O)[C@@H](NC(=O)/C(=N\O)c3csc(N)n3)[C@H]2SC1 [Cefdinir, reference compound] | min | 21
Nc1cc(SCSC2=C(C(=O)O)N3C(=O)C(NC(=O)/C(=N\O)c4nc(N)sc4Cl)C3SC2)nc(N)n1 (centres unmarked) | min | 139
